- Method: NCI Yeast Anticancer Drug Screen. Data for the sgs1 mgt1 strain (AID 161)
- Condition Label: S. cerevisiae sgs1 mgt1 strain, at 50.0 µM
Compounds without any hit were thinned out: in the full panel of roughly 79,000, 15% have a hit. The source made the active and inactive calls. Rule as the data show it: active = growth inhibition above about 70%; inactive = the rest.
Answer with one of the outcomes active, inactive

Problem: Dear all, I need the recorded test outcome for O=S1OCCS1 (stereo unspecified) , thank you.
Solution: active

Problem: Check CN(C)C(=S)/N=c1\ssc(=S)n1Cc1ccco1 too.
Solution: inactive

Problem: What about this molecule? O=C1c2ccccc2C(=O)c2c1cccc2[N+](=O)[O-]
Solution: active

Problem: Now this one: Cc1ccc(N=Nc2c(-c3ccccc3)nn(C(=S)S)c2-c2ccccc2)cc1
Solution: inactive

Problem: Also COc1cc(C)c2sc3ccccc3c(=O)c2c1NCCCN(C)C , if possible.
Solution: active

Problem: Moving on to O=C(CSc1cc[o+]cc1)c1cccc([N+](=O)[O-])c1
Solution: inactive

Problem: Same read-out for COC12C(COC(N)=O)C3=C(C(=O)C(C)=C(N)C3=O)N1CC1C2N1C(=O)c1ccc(Cl)c(Cl)c1 (stereo unspecified) ?
Solution: active

Problem: Field entry: COc1ccc(I)c(C=NC2CCCCC2)c1C
Solution: active

Problem: Same read-out for O=c1[nH]c2c([N+](=O)[O-])cc(Cl)cc2nc1/C=C(\O)c1ccccn1 ?
Solution: inactive

Problem: Cool, now Cc1cc(Br)cc(C)c1NC(=O)C(=O)C(C(=O)c1ccc2ccccc2c1)C1OC(=O)c2ccccc21 (stereo unspecified)
Solution: inactive

Problem: Follow-up entry: N#Cc1c(Cl)cc(Cl)n2c1nc1ccccc12
Solution: active

###

- Method: NCI Yeast Anticancer Drug Screen. Data for the mlh1 rad18 strain (AID 175)
- Condition Label: S. cerevisiae mlh1 rad18 strain growth inhibition; at 50.0 µM (retest, dose inferred, filed as 5.0)
About 79,000 compounds went through this panel and 15% of them were active in at least one assay; those are over-represented in the sample as a whole. Active and inactive are the calls of the source. No stated cut-off is given here; in the data, active means growth inhibition above about 70%; inactive means the rest.
Outcomes you can answer with include only these: yes (active), no (inactive)

Problem: Which outcome was assigned to CCOc1c(N=Nc2ccccc2Cl)c(-c2ccccc2)nn1C(=S)S in this test?
Solution: no

Problem: Thanks! And CCCCN(CCCC)CCCCCCNc1cc(OC)cc2cccnc12 ?
Solution: no

Problem: And the next one, O=[N+]([O-])c1cccc2nc3ccccc3c(NCCNCCO)c12 ?
Solution: yes

Problem: Next compound up: CN(C)CCCNc1c2ccccc2nc2ccc(F)cc12
Solution: no

Problem: Do the same for O=C(O)CCC(c1ccccc1)(c1ccccc1)c1ccccc1 please
Solution: yes

Problem: How about this compound: CC1CCCC(C(c2c[nH]c3ccccc23)c2c[nH]c3ccccc23)C1=O (stereo unspecified)
Solution: yes

Problem: Also Nc1nc(-c2ccc3c(c2)Sc2ccccc2O3)cs1 ?
Solution: yes

Problem: Follow-up entry: Cc1ccc(/C=C2\CCC/C(=C\c3ccc(O)c(CN4CCCCC4)c3)C2=O)cc1
Solution: no

Problem: Repeat for the following compound: Cc1ccccc1C(=N)c1ccccc1Cc1cccc2ccccc12
Solution: yes

Problem: Do the same for CCCCCCCCN(CCCCCCCC)CC(O)c1cc(-c2ccc(Cl)cc2)nc2c(Cl)cccc12 (stereo unspecified) please
Solution: no

Problem: Can you handle CC1CCCCN(CCN(Cc2ccccc2)c2ccccc2)C1 (stereo unspecified) next?
Solution: no
